Test system: OVCAR-3
ASSAY_OVERVIEW: NCI tumour cell line growth inhibition, 48 h
Activity calls are given as the source filed them. Cut-off read from the data, not from the text of the source: active = GI50 up to about 1.1 µM and inactive = higher. Peptide text beside a SMILES is read from it. * marks the point of attachment. Cbz = O=C(OCc1ccccc1)*; CH2Cl = ClC*
Respond with a class label; see active, inactive

Query block: Entry O=C1/C(=C/c2cccc(Br)c2)CCc2ccccc21 : call = ?
Result block: inactive

Query block: Entry C=CC(c1ccccc1)[C@@]1(OC(C)=O)C(=O)C(=O)OC1C1COC(C)(C)O1 (some centres not stated) : call = ?
Result block: inactive

Query block: Entry CCCN(CCC)c1c([N+](=O)[O-])cc(C(N)=O)cc1[N+](=O)[O-] : call = ?
Result block: inactive

Query block: Entry C/C(=N\NC(=S)N/N=C(\C)c1ccccn1)c1ccccn1 : call = ?
Result block: active

Query block: Entry CCc1cccc(C(C)CC)c1NC(=O)CC1C(=O)Nc2ccccc2[S+]1[O-] (configuration not stated) : call = ?
Result block: inactive

Query block: Entry C=C(C(=O)C(=O)Oc1ccc(Cl)cc1)C(=O)c1ccc(C)cc1 : call = ?
Result block: inactive

Query block: Entry CC(C)c1nc(Cl)nc(Cl)c1Cl : call = ?
Result block: active

Query block: Entry N#Cc1c(-c2ccccc2)c(/N=N/c2ccc(F)cc2)c(=O)n2c1[nH]c1ccccc12 : call = ?
Result block: inactive

Query block: Entry CC[C@@]1(O)C[C@H](OC2CC(N(C)C)C(OC3CC(O)C(OC4CCC(=O)C(C)O4)C(C)O3)C(C)O2)c2c(cc3c(c2O)C(=O)c2c(O)ccc(O)c2C3=O)[C@H]1C(=O)OC (some centres not stated) : call = ?
Result block: active

Query block: Entry NC(Cc1c[nH]c2cc([N+](=O)[O-])ccc12)C(=O)O (configuration not stated) : call = ?
Result block: inactive

Query block: Entry OC(c1nc2ccccc2[nH]1)C(O)C(O)C(O)c1nc2ccccc2[nH]1 (configuration not stated) : call = ?
Result block: inactive

Query block: Entry O=C1/C(=C/c2cccs2)NC(=S)N1CN1CCCCC1 : call = ?
Result block: inactive

Query block: Entry CC(=O)C1(O)CCC2(O)C3(O)CC=C4CC(O)CCC4(C)C3CC(OC(=O)c3ccc(O)cc3)C12C.COC1CC(OC2C(C)OC(OC3C(C)OC(OC4CCC5(C)C(=CCC6(O)C5CC(OC(=O)c5ccc(O)cc5)C5(C)C(O)(C(C)=O)CCC65O)C4)CC3OC)CC2OC)OC(C)C1O (configuration not stated) : call = ?
Result block: inactive

Query block: Entry Cc1cc2nc3c(C#N)c(-c4ccccc4)cc(Nc4ccc(Cl)cc4)n3c2cc1C : call = ?
Result block: inactive

Query block: Entry CN(CCNC(=S)c1cn(C)c2c1ccc1ccccc12)CCNC(=S)c1cn(C)c2c1ccc1ccccc12 : call = ?
Result block: inactive

Query block: Entry CC(C)CC(NC(=O)OCc1ccccc1)C(=O)NC(Cc1ccccc1)C(=O)CCl (stereo not drawn) (Cbz-Leu-Phe-CH2Cl; configuration not given here) : call = ?
Result block: inactive

Query block: Entry Cc1cc2c(=O)c3ccc(Cl)cc3[nH]c2c(C(=O)O)c1C : call = ?
Result block: inactive

Query block: Entry O=C1CC(C(O)C(O)C(O)CO)CC(=O)N1 (configuration not stated) : call = ?
Result block: inactive

Query block: Entry COCc1nc2c(OC)c(-c3nc4ccc(N5CCN(C)CC5)nc4[nH]3)cc(OC)c2n1C : call = ?
Result block: inactive

Query block: Entry CC(C(=O)c1ccccc1)C1(O)C(=O)Nc2ccc(Cl)cc21 (configuration not stated) : call = ?
Result block: inactive

Query block: Entry O=C1C(Br)=CC2(C=C1Br)CCNC1=C2C(=O)c2[nH]cnc2C1=O : call = ?
Result block: inactive

Query block: Entry C=CCN1CCC23c4c5ccc(O)c4OC2C(=NN=C2CCC4(O)C6Cc7ccc(O)c8c7C4(CCN6CC=C)C2O8)CCC3(O)C1C5 (configuration not stated) : call = ?
Result block: inactive

Query block: Entry C=CCC1(O)C(=O)OC2C(O)COC21O (configuration not stated) : call = ?
Result block: inactive

Query block: Entry CCCc1n[nH]c(=O)n1N1C(=O)C=CC1=O : call = ?
Result block: inactive

Query block: Entry Cc1nc2c(N)ncnc2o1 : call = ?
Result block: inactive

Query block: Entry N#Cc1c(N2CCCC2)nsc1Nc1ccc(F)cc1 : call = ?
Result block: inactive

Query block: Entry N#CC(C#N)=Cc1cccc(Oc2ccccc2)c1 : call = ?
Result block: inactive
